Form field: IC50 (one value per entry).
Biological target: Na+-dependent bile acid transport system (Oryctolagus cuniculus)
Construct: brush-border membrane vesicles from the ileum of rabbits; from tissue; host or cells: terminal ileum of male New Zealand rabbits, brush-border membrane vesicles
Assay: Inhibition of Na+-dependent [3H]taurocholate absorption into brush-border membrane vesicles of the ileum
Format: biochemical, rabbit
Settings: read-out: IC50
Respond numerically; units are µM and should not be typed.

>  <Compound>
C[C@H](CCC(=O)O)[C@H]1CC[C@H]2[C@@H]3[C@H](O)C[C@@H]4C[C@@H](OCCNC(=O)[C@@H](C)NC(=O)[C@@H](C)N)CC[C@]4(C)[C@H]3C[C@H](O)[C@]12C [Example 121, H-D-Ala-D-Ala-NH--(CH2)2 --GS--OH]

>  <Display unit>
µM

>  <Measurement>
84

$$$$
>  <Compound>
CC(C)c1nc(-c2ccccc2)cc(-c2ccc(F)cc2)c1/C=C/[C@@H]1C[C@@H](O)CC(=O)O1 [Example 125, reference compound]

>  <Display unit>
µM

>  <Measurement>
46

$$$$

Can you look up the measured IC50 of Cc1cc(C(=C(/C=C/[C@@H](O)C[C@@H](O)CC(=O)NCCO[C@H]2CC[C@@]3(C)[C@@H](C2)C[C@@H](O)[C@@H]2[C@@H]3C[C@H](O)[C@]3(C)[C@@H]([C@H](C)CCC(=O)O)CC[C@@H]23)C(C)C)c2ccc(F)c(C)c2)ccc1F [Example 90] for me? 12

====

Target: Na+-dependent bile acid transport system (Oryctolagus cuniculus)
Construct: brush-border membrane vesicles from the ileum of rabbits; from tissue; host or cells: terminal ileum of male New Zealand rabbits, brush-border membrane vesicles
Sequence (Q28727 1-347): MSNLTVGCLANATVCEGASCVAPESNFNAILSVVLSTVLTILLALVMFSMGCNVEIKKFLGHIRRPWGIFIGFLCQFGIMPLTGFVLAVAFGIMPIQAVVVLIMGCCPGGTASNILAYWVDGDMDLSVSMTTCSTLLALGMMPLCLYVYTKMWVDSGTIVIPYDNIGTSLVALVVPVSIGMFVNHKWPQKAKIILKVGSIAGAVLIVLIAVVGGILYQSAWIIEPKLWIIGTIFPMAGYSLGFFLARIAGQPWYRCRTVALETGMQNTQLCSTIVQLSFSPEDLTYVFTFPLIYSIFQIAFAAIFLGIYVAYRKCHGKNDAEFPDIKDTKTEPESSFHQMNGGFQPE
Test: Inhibition of Na+-dependent [3H]taurocholate absorption into brush-border membrane vesicles of the ileum
Assay type: biochemical, rabbit
Settings: read-out: IC50
Test readout: IC50 (µM)
Answer with a number only, understood to be in µM.

>  <Molecule>
C[C@H](CCC(=O)NCCS(=O)(=O)O)[C@H]1CC[C@H]2[C@@H]3CC[C@@H]4C[C@H](O)CC[C@]4(C)[C@H]3CC[C@]12C [Taurolithocholate, reference compound]

>  <Target or test system>
Na+-dependent bile acid transport system (Oryctolagus cuniculus)

>  <Display unit>
µM

>  <IC50>
12

$$$$

For the next question, use this molecule.
Find the recorded IC50 belonging to CC(C)c1cc(Sc2ccc(F)cc2)cc(-c2ccc(F)cc2)c1OC[C@@H](O)C[C@@H](O)CC(=O)NCCCO[C@H]1CC[C@@]2(C)[C@@H](C1)C[C@@H](O)[C@@H]1[C@@H]2C[C@H](O)[C@]2(C)[C@@H]([C@H](C)CCC(=O)O)CC[C@@H]12 and report it. 13
